- Test system: horny layer
- EXPERIMENT: Skin conductance (water content of horny layer) after two-week coating on cheeks
- Format: in vivo, women
- Design: key: conductance meter reading; ≤5 = severe roughness, ≥20 = no roughness
- CONDITION LABEL: Invention Product 1: vaseline and compound 3:1 by weight; two weeks; 20° C., 40% humidity; 5 and smaller = severe roughness, 20 or greater = no substantial roughness
PROPERTY NAME: Skin conductance

For orientation, consider the following solved cases.
COMPOUND	Skin conductance
CCCCCCCCCCOCC(O)CN(CC(=O)O)CC(O)COCCCCCCCCCC (stereo not drawn) [Compound II6]	7
CCCCCCCCCCCCCCCCCCOCC(O)CN(CC(O)COCCCCCCCCCCCCCCCCCC)C(C)=O (stereo not drawn) [Compound II12]	20

We now examine a further compound.
*Q* Give the measured Skin conductance of CCCCCCCCCCCCCCCCCCOCC(O)CN(CCOCCO)C(=O)CCCCCCCCC (stereo not drawn) [Compound Ib3] .
*A* 14

* * *

- System: skin roughness
- EXPERIMENT: Score of skin roughness, visual ranking after two-week coating on cheeks
- Type: in vivo, women
- CONDITION LABEL: Invention product 4: emulsified cosmetic, compound 1.0 wt. %, polyoxyethylene (20) sorbitan stearate 1.0 and sorbitan monostearate 1.0 wt. %; average; 0 = none, 4 = severe
- Procedure: […] Using separately the compounds used in Example 1, external skin care preparations (emulsified cosmetic preparations) of their corresponding compositions shown below in Table 2 were formulated. Their effects for the improvement of skin roughness were evaluated in the same manner as in Example 1.
PROPERTY NAME: Score of skin roughness
Form field (numeric): enter value without unit.

Sample records with Score of skin roughness:
COMPOUND	MEASURED
CCCCCCCCCCOCC(O)CN(CCOCCO)C(=O)CCCCCCCCC (centres unmarked)	1.2
CCCCCCCCCCOCC(O)CN(CCO)CC(O)COCCCCCCCCCC (centres unmarked)	1.2

*Q* Field request: Score of skin roughness | item: CCCCCCCCCCCCCCCCCCOCC(O)CN(CC(=O)O)CC(O)COCCCCCCCCCCCCCCCCCC (centres unmarked)
*A* 0.8

*Q* For the compound CCCCCCCCCCCCCCCCCCOCC(O)CN(CCOCCO)C(=O)CCCCCCCCCCCCCCCCC (centres unmarked) , what Score of skin roughness is on record?
*A* 0.8

*Q* So what's the measured Score of skin roughness for this one? CCCCCCCCCCCCCCCCCCOCC(O)CN(CCO)CC(O)COCCCCCCCCCC (centres unmarked)
*A* 1.1

*Q* Name the reported Score of skin roughness value associated with the compound CCCCCCCCCCCCCCCCCCOCC(O)CN(CCOCCO)C(=O)CCCCCCCCC (centres unmarked)
*A* 1.1

*Q* Look up Score of skin roughness: CCCCCCCCCCCCCCCCOCC(O)CN(CCCO)C(=O)CCCCCCCCCCCCCCC (centres unmarked)
*A* 0.8

*Q* Tell me the measured Score of skin roughness of CCCCCCCCCCCCCCCCCCOCC(O)CN(CCCO)C(=O)CCCCCCCCCCCCCCCCC (centres unmarked) , please.
*A* 0.7

* * *

- Test system: skin roughness
- EXPERIMENT: Score of skin roughness, visual ranking after two-week coating on cheeks
- Assay type: in vivo, women
- CONDITION LABEL: Invention product 4: emulsified cosmetic, compound 1.0 wt. %, polyoxyethylene (20) sorbitan stearate 1.0 and sorbitan monostearate 1.0 wt. %; average; 0 = none, 4 = severe
With a cut-off of 1, any Score of skin roughness strictly below it is called YES; any Score of skin roughness meeting it or above is called NO.

Completed entries (count: 5):
MOLECULE	TESTED SYSTEM	QUALITATIVE LABEL
CCCCCCCCCCCCCCCCC(O)CN(CCO)C(=O)CCCCCCCCC (stereo not shown)	skin roughness	YES
CCCCCCCCCCOCC(O)CN(CCCO)C(=O)CCCCCCCCC (stereo not shown)	skin roughness	NO
CCCCCCCCCCCCCCCCOCC(O)CN(CCO[C@@H]1O[C@H](CO)[C@@H](O)[C@H](O)[C@H]1NC(C)=O)C(=O)CCCCCCCCCCCCCCC (stereo partly shown)	skin roughness	YES
CCCCCCCCCCCCCCCCCCOCC(O)CN(CC(O)COCCCCCCCCCCCCCCCCCC)C(C)=O (stereo not shown)	skin roughness	YES
CCCCCCCCCCCCCCCCCCOCC(O)CN(CC(=O)O)CC(O)COCCCCCCCCCC (stereo not shown)	skin roughness	NO

*Q* Dear colleague, could you confirm whether Score of skin roughness of CCCCCCCCCCCCCCCCOCC(CN(CCOP(=O)([O-])OCC[N+](C)(C)C)C(=O)CCCCCCCCCCCCCCC)OP(=O)([O-])OCC[N+](C)(C)C (stereo not shown) falls below 1? Thanks.
*A* NO

*Q* Strictly below 1: is that where Score of skin roughness of CCCCCCCCCCCCCCCCOCC(O)CN(C(=O)CCCCCCCCCCCCCCC)C(C)C(=O)O (stereo not shown) sits?
*A* NO

*Q* Answer whether the molecule CCCCCCCCCCCCCCCCOCC(O)CN(C(=O)CCCCCCCCCCCCCCC)C(CC(=O)O)C(=O)O (stereo not shown) has Score of skin roughness strictly less than 1
*A* NO

*Q* API: query returns whether the molecule falls strictly under 1 in Score of skin roughness. Query: CCCCCCCCCCCCCCCCCCOCC(O)CN(C(=O)CCCCCCCCCCCCCCCCC)C(C)(CO)CO (stereo not shown)
*A* YES

*Q* Does the reported Score of skin roughness of the following molecule sit strictly below 1? CCCCCCCCCCOCC(O)CN(CC(O)COCCCCCCCCCC)C(C)=O (stereo not shown)
*A* NO

*Q* hey, is Score of skin roughness for CCCCCCCCCCCCCCCCCC(=O)N(CCO)CC(O)CCCCCCCCCCCCCC (stereo not shown) lower than 1 or not?
*A* YES

*Q* I'd appreciate it if you could check whether CCCCCCCCCCCCCCCCOCC(O)CN(C(=O)CCCCCCCCCCCCCCC)C(Cc1ccccc1)C(=O)O (stereo not shown) has Score of skin roughness smaller than 1.
*A* NO

* * *

Each entry below lists one item and its recorded Score of skin roughness value.
- Tested on: skin roughness
- EXPERIMENT: Score of skin roughness, visual ranking after two-week coating on cheeks
- Type: in vivo, women
- CONDITION LABEL: Invention product 4: emulsified cosmetic, compound 1.0 wt. %, polyoxyethylene (20) sorbitan stearate 1.0 and sorbitan monostearate 1.0 wt. %; average; 0 = none, 4 = severe
Lab note: record just the number, no unit beside it.

Here is how some compounds turned out for Score of skin roughness.
COMPOUND	MEASURED
CCCCCCCCCCCCCCCCCCOCC(O)CN(CC(O)CO)C(=O)CCCCCCCCC (stereo not shown)	0.9
CCCCCCCCCCCCCCOCC(O)CN(C(=O)CCCCCCCCC)C(CO)(CO)CO (stereo not shown)	0.7
CCCCCCCCCCCCCCCCCC(=O)N(CCCCCCO)CC(O)COCCCCCCCCCC (stereo not shown)	1.2

*Q* Test system skin roughness; read-out Score of skin roughness; what value for CCCCCCCCCCCCCCCCCCOCC(O)CN(CC(C)O)C(=O)CCCCCCCCCCCCCCCCC (stereo not shown) ?
*A* 1.1

*Q* // lookup Score of skin roughness | system=skin roughness | key= CCCCCCCCCCCCCCCCCCOCC(O)CN(CCCCCCO)C(=O)CCCCCCCCCC (stereo not shown)
*A* 1.1

* * *

- Tested on: horny layer
- EXPERIMENT: Skin conductance (water content of horny layer) after two-week coating on cheeks
- Assay type: in vivo, women
- Parameters: key: conductance meter reading; ≤5 = severe roughness, ≥20 = no roughness
- CONDITION LABEL: Invention Product 1: vaseline and compound 3:1 by weight; two weeks; 20° C., 40% humidity; 5 and smaller = severe roughness, 20 or greater = no substantial roughness
PROPERTY NAME: Skin conductance
# answer = number (no unit)

// known answers, use as guide
MOLECULE	Skin conductance
CCCCCCCCCCCCCCCCOCC(CN(CCO)C(=O)CCCCCCCCCCCCCCC)OP(=O)([O-])OCC[N+](C)(C)C (stereo not shown)	11
CCCCCCCC/C=C\CCCCCCCC(=O)N(CCO)CC(O)CCCCCCCCCCCCCCCC (stereo not shown)	25
CCCCCCCCCCCCCCCCOCC(O)CN(CCOC1O[C@H](CO)[C@@H](O)[C@H](O)[C@H]1O)C(=O)CCCCCCCCCCCCCCC (stereo partly shown)	25
CCCCCCCCCCCCCCCCCCOCC(O)CN(CCO)CC(O)COCCCCCCCCCCCCCCCCCC (stereo not shown)	21
CCCCCCCCCCCCCCCCCCOCC(O)CN(CC(O)CO)C(=O)CCCCCCCCC (stereo not shown)	18

*Q* Form field - read-out: Skin conductance; system: horny layer; submitted item: CCCCCCCCCCCCCCCCOCC(O)CN(C(=O)CCCCCCCCCCCCCCC)C(Cc1c[nH]c2ccccc12)C(=O)O (stereo not shown)
*A* 10

*Q* Skin conductance of CCCCCCCCCCOCC(O)CN(CCOP(=O)(O)OCCNCCc1ccccc1)C(=O)CCCCCCCCC (stereo not shown) on horny layer?
*A* 11
